Listed below: Plant response rating, Wild oats values for each entry.
# Test system: wild oat
# experiment-notes: Test B pre/postemergence wild oat
# Type: in vivo, Avena fatua
# condition-info: Preemergence, Rate 125 g/ha; scale of 0 to 10 where 0 is no effect and 10 is complete control
# Description: […] At the same time, these crop and weed species were also treated with postemergence applications of test chemicals formulated in the same manner. […] Treated plants and controls were maintained in a greenhouse for twelve to sixteen days, after which all species were compared to controls and visually evaluated. […]
Provide a numeric answer; units are not to be included.

{"columns": ["compound", "observed-property", "readout-number"],
 "data": [
  ["CC(C)N(C(=O)n1oc(=O)n(C(C)C2=NOCC2)c1=O)c1ccc(F)cc1F (racemic) [Compound 730]", "Plant response rating, Wild oats", 4],
  ["CC(C)N(C(=O)n1oc(=O)n(CC(F)F)c1=O)c1ccccc1 [Compound 746]", "Plant response rating, Wild oats", 10],
  ["CCC(C)N(C(=O)n1oc(=O)n(C(C)C)c1=O)c1ccc(F)cc1 (stereo not shown) [Compound 689]", "Plant response rating, Wild oats", 9],
  ["CSCCn1c(=O)on(C(=O)N(c2ccccc2)C(C)C)c1=O [Compound 419]", "Plant response rating, Wild oats", 0],
  ["C=CC[Si](C)(C)Cn1c(=O)on(C(=O)N(c2ccc(Cl)cc2)C(C)C)c1=O [Compound 414]", "Plant response rating, Wild oats", 0],
  ["COC(C)n1c(=O)on(C(=O)N(c2ccc(F)cc2)C(C)C)c1=O (stereo not shown) [Compound 439]", "Plant response rating, Wild oats", 0],
  ["CC(C)Cn1c(=O)on(C(=O)N(c2ccc(F)cc2F)C(C)C)c1=O [Compound 394]", "Plant response rating, Wild oats", 6],
  ["CC(C)N(C(=O)n1oc(=O)n(C(C)C#N)c1=O)c1ccc(Cl)cc1 (stereo not shown) [Compound 451]", "Plant response rating, Wild oats", 0],
  ["CC(C)N(C(=O)n1oc(=O)n(CC#N)c1=O)c1ccc(Cl)cc1 [Compound 476]", "Plant response rating, Wild oats", 0]
]}

Next up:
Request: Give recorded Plant response rating, Wild oats. CC(C)N(C(=O)n1oc(=O)n(CCl)c1=O)c1ccc(F)cc1F [Compound 437]
Response: 0

----------
# Tested on: pigweed
# experiment-notes: Test B pre/postemergence pigweed
# Type: in vivo, Amaranthus retroflexus
# condition-info: Rate 250 g/ha, Postemergence; scale of 0 to 10 where 0 is no effect and 10 is complete control
Listed below: Plant response rating, Redroot pigweed values for each entry.
Provide a numeric answer; units are not to be included.

Some compounds with known Plant response rating, Redroot pigweed results, for comparison:
{"columns": ["compound", "observed-property", "readout-number"],
 "data": [
  ["CC(C)N(C(=O)n1oc(=O)n(CC2CCCC2)c1=O)c1ccc(F)cc1", "Plant response rating, Redroot pigweed", 3],
  ["CC(Cl)=CCn1c(=O)on(C(=O)N(c2ccc(Cl)cc2)C(C)C)c1=O", "Plant response rating, Redroot pigweed", 0],
  ["Cc1ccccc1-n1c(=O)on(C(=O)N(c2ccncc2)C(C)C)c1=O", "Plant response rating, Redroot pigweed", 0]
]}

Next up:
Request: Give recorded Plant response rating, Redroot pigweed. CC(C)N(C(=O)n1oc(=O)n(C(C)C(=O)c2ccccc2)c1=O)c1ccc(Cl)cc1 (stereo not shown)
Response: 0

----------
Listed below: Giant foxtail plant response rating values for each entry.
# Test system: giant foxtail
# experiment-notes: Test B pre/postemergence giant foxtail
# Assay type: in vivo, Setaria faberii
# condition-info: Preemergence, Rate 250 g/ha; scale of 0 to 10 where 0 is no effect and 10 is complete control
Provide a numeric answer; units are not to be included.

Some compounds with known Giant foxtail plant response rating results, for comparison:
{"columns": ["compound", "Giant foxtail plant response rating"],
 "data": [
  ["CC(C)N(C(=O)n1oc(=O)n([C@@H]2C[C@H]2C)c1=O)c1ccc(F)cc1 (relative stereo)", 10],
  ["CC(C)N(C(=O)n1oc(=O)n(C2CCC2)c1=O)c1ccc(F)cc1", 10]
]}

Request: Give recorded Giant foxtail plant response rating. "CCC(CC)n1c(=O)on(C(=O)N(c2ccc(F)cc2F)C(C)C)c1=O"
Response: 10

Request: Give recorded Giant foxtail plant response rating. "Cc1cc(C)c(-n2c(=O)on(C(=O)N(c3ccc(F)cc3)C(C)C)c2=O)c(Br)c1"
Response: 9

Request: Give recorded Giant foxtail plant response rating. "CC(C)N(C(=O)n1oc(=O)[nH]c1=O)c1ccc(F)cc1F"
Response: 0

----------
# System: crabgrass
# experiment-notes: Test B pre/postemergence crabgrass
# Assay type: in vivo, Digitaria sanguinalis
# condition-info: Preemergence, Rate 125 g/ha; scale of 0 to 10 where 0 is no effect and 10 is complete control
observed-property: Crabgrass plant response rating
Provide a numeric answer; units are not to be included.

Some molecules with known Crabgrass plant response rating results, for comparison:
{"columns": ["molecule", "Crabgrass plant response rating"],
 "data": [
  ["CC(C)N(C(=O)n1oc(=O)n(CNC(=O)c2ccccc2)c1=O)c1ccc(F)cc1F", 1],
  ["CCOC(=O)CC(C(=O)OCC)n1c(=O)on(C(=O)N(c2ccccc2)C(C)C)c1=O (centres unmarked)", 6],
  ["CC[C@@H](C)n1c(=O)on(C(=O)N(c2ccc(Cl)cc2)C(C)C)c1=O", 8],
  ["C=C(Cn1c(=O)on(C(=O)N(c2ccccc2)C(C)C)c1=O)C(C)(C)C", 8]
]}

Next up:
Request: Answer with Crabgrass plant response rating of "CC(=O)N(C)CCn1c(=O)on(C(=O)N(c2ccc(F)cc2)C(C)C)c1=O" measured for crabgrass.
Response: 7

----------
# Tested on: surinam grass
# experiment-notes: Test B pre/postemergence surinam grass
# Format: in vivo, Brachiaria decumbens
# condition-info: Rate 125 g/ha, Postemergence; scale 0 to 10, 0 is no effect, 10 is complete control
observed-property: B. signalgrass plant response rating
Provide a numeric answer; units are not to be included.

Some compounds with known B. signalgrass plant response rating results, for comparison:
{"columns": ["compound", "B. signalgrass plant response rating"],
 "data": [
  ["CC(C)N(C(=O)n1oc(=O)n(CCl)c1=O)c1ccc(Cl)cc1 [Compound 422]", 0],
  ["CC(C)N(C(=O)n1oc(=O)n(CCl)c1=O)c1ccc(F)cc1F [Compound 437]", 0],
  ["CC(C)N(C(=O)n1oc(=O)n(CC#N)c1=O)c1ccc(Cl)cc1 [Compound 476]", 0]
]}

Next up:
Request: Give recorded B. signalgrass plant response rating. CC(C)N(C(=O)n1oc(=O)n(CC2=NOCCC2)c1=O)c1ccccc1 [Compound 430]
Response: 1

----------
# Test system: bamyardgrass
# experiment-notes: Test B flood test barnyardgrass
# Type: in vivo, Echinochloa crus-galli
# condition-info: Rate 250 g/ha; Pre-emergence; flood-test species; scale 0 to 10, 0 is no effect, 10 is complete control
Listed below: Barnyardgrass plant response rating values for each entry.
Provide a numeric answer; units are not to be included.

Some molecules with known Barnyardgrass plant response rating results, for comparison:
{"columns": ["molecule", "tested-on", "readout-number"],
 "data": [
  ["CC(C)Cn1c(=O)on(C(=O)N(c2ccc(F)cc2F)C(C)C)c1=O [Compound 394]", "bamyardgrass", 6],
  ["CC(C)N(C(=O)n1oc(=O)n(C(C)Cl)c1=O)c1ccc(F)cc1 (centres unmarked) [Compound 393]", "bamyardgrass", 0],
  ["CC(C)N(C(=O)n1oc(=O)n(C2CCCC2)c1=O)c1ccc(Cl)cc1 [Compound 282]", "bamyardgrass", 9],
  ["COCCOCn1c(=O)on(C(=O)N(c2ccc(F)cc2)C(C)C)c1=O [Compound 258]", "bamyardgrass", 0],
  ["C=C(C)Cn1c(=O)on(C(=O)N(c2ccc(F)cc2)C(C)C)c1=O [Compound 139]", "bamyardgrass", 0]
]}

Request: Give recorded Barnyardgrass plant response rating. Cc1ccccc1-n1c(=O)on(C(=O)N(c2ccccc2F)C(C)C)c1=O [Compound 204]
Response: 0

Request: Give recorded Barnyardgrass plant response rating. CCC(CC)n1c(=O)on(C(=O)N(c2ccc(F)cc2F)C(C)C)c1=O [Compound 353]
Response: 0

Request: Give recorded Barnyardgrass plant response rating. CC(C)N(C(=O)n1oc(=O)[nH]c1=O)c1ccc(F)cc1F [Compound 391]
Response: 0

----------
# Test system: sugar beet
# experiment-notes: Test B pre/postemergence sugar beet
# Type: in vivo, Beta vulgaris
# condition-info: Preemergence, Rate 62 g/ha; scale 0 to 10 (0 no effect, 10 complete control)
Listed below: Plant response rating, Sugarbeets values for each entry.
Provide a numeric answer; units are not to be included.

{"columns": ["compound", "Plant response rating, Sugarbeets"],
 "data": [
  ["CC(C)N(C(=O)n1oc(=O)n(CCl)c1=O)c1ccc(Cl)cc1", 0]
]}

Request: Give recorded Plant response rating, Sugarbeets. "C=CC[Si](C)(C)Cn1c(=O)on(C(=O)N(c2ccc(Cl)cc2)C(C)C)c1=O"
Response: 0

Request: Give recorded Plant response rating, Sugarbeets. "CC(C)N(C(=O)n1oc(=O)n(C2(C)CC2)c1=O)c1ccccc1"
Response: 2

Request: Give recorded Plant response rating, Sugarbeets. CC(C)N(C(=O)n1oc(=O)n(C(C)CCl)c1=O)c1ccccc1 (centres unmarked)
Response: 5

Request: Give recorded Plant response rating, Sugarbeets. "CC(C)N(C(=O)n1oc(=O)n(C)c1=O)c1ccccc1"
Response: 2
